Test system: NCI-H522 lung
protocol.summary: NCI tumour cell line growth inhibition, 48 h
Provide the recorded TGI for the entries that follow.

molecule O=P(O)(O)C(O)(Cn1ccnc1)P(=O)(O)O , TGI observed: > 100 µM

Form field TGI, entry CCCSc1cc(Cl)nc(N)n1 : > 100 µM

The reported TGI of the molecule NC(CCSCC(F)F)C(=O)O (stereo unspecified) was > 100 µM

What the record says about Cc1cc2c(cc1Cl)SC(NNc1cnc3ccccc3n1)=NS2(=O)=O : TGI is > 100 µM

In plain terms, CCOC(=O)/C(=C/c1ccco1)P(=O)(OCC)OCC has a documented TGI of > 100 µM

Input COc1ccc2c(c1)[C@@]13CCN4CC5=CCO[C@H]6CC(=O)N2[C@H]1[C@H]6[C@H]5C[C@H]43 . Output TGI: > 100 µM

* * *

System: RPMI-8226 leukemia
protocol.summary: NCI tumour cell line growth inhibition, 48 h
measured.endpoint: TGI

TGI in this record for C=C1C(=O)O[C@H]2[C@H]1CC/C(COC(=O)c1cc3cc(OC)ccc3[nH]1)=C\CC[C@@]1(C)O[C@@H]21 : 3.87 µM

The molecule COc1cc(/C=C/c2cc(=O)cc(/C=C/c3ccc(O)c(OC)c3)o2)ccc1O showed TGI equal to > 20.7 µM

Please fill in: TGI reported for CCN(CCO)CCNc1ccc(C)c2sc3cc(Cl)ccc3c(=O)c12 = 4.6 µM

Record CC(=O)OCCOCBr . Reported TGI: > 100 µM

So for COc1ccc(CN2C(=O)C(=O)N(C)C2=O)c2ccccc12 , the logged TGI turned out to be > 10 µM

Input CC(C)(C)OC(=O)c1ccc(NCc2cc(O)ccc2O)cc1 . Output TGI: 13 µM

Reported TGI of CCOC(=O)Cc1nn2c(=O)cc(C)nc2s1 : > 100 µM

Input O=C(Nc1ccc(S(=O)(=O)N[C@@H](C(=O)O)c2ccccc2)cc1)c1ccc(F)cc1 . Output TGI: > 100 µM

Looking up CCOC(=O)c1ccc(C(=O)/C(C(=O)OC(C)(C)C)=C2\CCCN2C)n1C , I found its TGI recorded as > 100 µM

* * *

Test system: HCT-116 colon
protocol.summary: NCI tumour cell line growth inhibition, 48 h
measured.endpoint: TGI

What the record says about Cc1ccc2/c(=C/c3ccc(N(C)C)cc3)c3cc(-c4ccccc4)[n+](C)n3c2c1 : TGI is > 100 µM

Item: OCC1OC(O[C@H]2CN3[C@H](O)[C@@H](O)[C@H](O)[C@H]3C2O)C(O)C(O)C1O (stereo not given in full) | TGI: > 100 µM

// recorded TGI for CC1(C)CCc2cc3c(cc2O1)OCCC3=O : > 100 µM

The reported TGI of the compound CCOC1NC(=O)c2ccccc21 (stereo not given) was > 100 µM

Sample COc1ccc(-c2cc(-c3cc(Cl)ccc3Cl)nc3nc(=S)[nH]c(N)c23)cc1 ; TGI observed: 28.4 µM

The recorded TGI for CCC1(CC)C(=O)NC(=S)N=C1N is > 100 µM

For this compound ( CN1CCN(C)C1c1cccc(C2N(C)CCN2C)c1 ), measured TGI is > 100 µM

Sample Cc1ccc(-c2nc(C(Cl)Cl)n3nc(-c4ccccc4)cc3n2)cc1 ; TGI observed: 0.712 µM

CCOC(=O)c1ccc(C(=O)/C(C(=O)OC(C)(C)C)=C2\CCCN2C)n1C yielded TGI of > 100 µM

Field TGI (entry CNc1ccc2c(c1)Cc1ccccc1-2 ) reads > 100 µM

compound CC(O)(C(=O)N(O)c1ccc(Cl)cc1)c1ccc(Cl)cc1 (stereo not given) , TGI observed: 96.1 µM

Just so you know, measured TGI for NC(CCSCC(F)F)C(=O)O (stereo not given) came out at > 100 µM

Entry CC1=C(C)C(=O)O[C@@H]([C@](C)(O)[C@]2(O)CC[C@@]3(O)[C@@H]4C[C@H]5O[C@]56CC=CC(=O)[C@]6(C)[C@H]4CC[C@]23C)C1 ; TGI = 1.09 µM

The recorded TGI for C[C@@H]1C(=O)CC2(O)[C@@]13C[C@@H](OC(=O)[C@@H]3O)[C@@H](C)[C@@]21COC1=O (stereo not given in full) is > 100 µM

// recorded TGI for COc1ccc(C2C(C#N)=C(N)OC3=C2CCCc2ccc(F)cc23)cc1OC (stereo not given) : 39.1 µM
